Tested on: ACHN renal
assay_procedure: NCI tumour cell line growth inhibition, 48 h; in the data active = GI50 below about 0.43 µM; inactive = the rest
Outcomes: active, inactive

1. O=S(=O)(O)c1ccc2cc3nn(-c4ccc(/C=C/c5ccc(-n6nc7cc8ccc(S(=O)(=O)O)cc8cc7n6)cc5S(=O)(=O)O)c(S(=O)(=O)O)c4)nc3cc2c1 ... inactive
2. COc1cc(C(=O)/C=C/c2c(C(F)(F)F)nc3ccccn23)cc(OC)c1OC ... inactive
3. N#Cc1cccc(Nc2ncc(-c3ccccc3)o2)c1 ... inactive
4. O=C1/C(=C/c2ccccc2[N+](=O)[O-])COc2ccc(O)cc21 ... inactive
5. CN(C)CCCn1c2c(c3cc4c(cc3c1=O)OCO4)C(=O)c1ccccc1-2 ... active
6. CC(=O)OCC(CC[CH2][Sn]([Cl])([Cl])[c]1ccccc1)OC(C)=O (stereo not given) ... inactive
7. CC(=O)N(O)c1ccc(/C=C/c2ccccc2)cc1 ... active
8. CCN(Cc1ccc(F)cc1)c1ccc(CO)c(C(F)(F)F)c1 ... inactive
9. COCCOCCOCCOCCOC(=O)OC[n+]1ccc(NC(=NCCCCCCOc2ccc(Cl)cc2)NC#N)cc1 ... inactive
10. c1ccc(C2CCCCC2)c(OCCCCCN2CCNCC2)c1 ... inactive
11. O=S(=O)(NCCCNc1cc(-c2cn(-c3ccccc3)nc2-c2cccc(O)c2)ccn1)c1ccc(F)cc1 ... inactive
12. COc1ccc2nc3cc(Cl)ccc3c(N3CCN(c4ccnc(N5CCN(C)CC5)n4)CC3)c2c1 ... inactive
13. C/C(=N\NC(=S)N1CCN(c2ccccn2)CC1)c1ncccn1 ... active
14. [Cl][Cu][Cl] ... inactive
15. COC(=O)c1cc([N+](=O)[O-])cc([N+](=O)[O-])c1Cl ... inactive
